Target: CYP1A2 (Homo sapiens, UniProt P05177)
Sequence (P05177 whole entry): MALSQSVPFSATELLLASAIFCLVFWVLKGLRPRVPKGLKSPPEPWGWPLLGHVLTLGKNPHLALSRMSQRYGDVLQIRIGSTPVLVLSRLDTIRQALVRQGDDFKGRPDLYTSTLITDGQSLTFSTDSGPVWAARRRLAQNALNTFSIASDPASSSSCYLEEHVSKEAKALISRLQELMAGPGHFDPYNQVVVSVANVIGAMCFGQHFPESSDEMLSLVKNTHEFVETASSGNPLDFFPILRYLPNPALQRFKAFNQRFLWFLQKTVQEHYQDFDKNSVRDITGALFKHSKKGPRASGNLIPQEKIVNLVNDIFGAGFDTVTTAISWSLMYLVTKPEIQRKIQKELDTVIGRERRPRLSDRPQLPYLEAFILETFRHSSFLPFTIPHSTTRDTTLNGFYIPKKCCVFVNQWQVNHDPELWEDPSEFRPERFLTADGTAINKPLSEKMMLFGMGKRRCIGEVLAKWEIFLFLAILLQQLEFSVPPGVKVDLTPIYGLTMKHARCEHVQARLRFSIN
Experiment: Inhibition of CYP1A2 (unknown origin) at 5 uM relative to control
Assay type: ADME
reported_endpoint: inhibition at 5 µM

> print(dat)
                               query.smiles  result
1  CC(=O)N[C@H]1CC[C@H](Nc2nccc(-c3c(-c4ccccc4)noc3C)n2)CC1     29%
